- Tested on: Proteus vulgaris
- procedureDetails: MIC against Gram-negative bacteria: Proteus vulgaris
- Type: cell-based
- reportedConditions: Proteus vulgaris; 5×10^5 CFU/mL; 10 h cultivation at 37° C.

>  <substance>
PRT1475 (DINECKDPSNINGGCSQICDNTPGSYHCSCKNGFVMLSNKKDCK; listed as Homo sapiens)

>  <measureUnit>
µg/mL

>  <MIC against P. vulgaris>
12.5

$$$$
>  <substance>
PRT1377 (PASACPGGCGPRELCRAGQCVCVEGFRGPDC; listed as Homo sapiens)

>  <measureUnit>
µg/mL

>  <MIC against P. vulgaris>
50

$$$$
>  <substance>
PRT1461 (CNCNTSGTVDGDITCHQNSGQCKCKANVIGLRCDHCNFGFKFLRSFNDVGCEP; listed as Homo sapiens)

>  <measureUnit>
µg/mL

>  <MIC against P. vulgaris>
12.5

$$$$
>  <substance>
PRT1441 (EVDECSWPDHGGCEHRCVNTLGSYKCACDPGYELAADKKMCE; listed as Homo sapiens)

>  <measureUnit>
µg/mL

>  <MIC against P. vulgaris>
25

$$$$
>  <substance>
PRT1346 (EVNECQSNPCLNNAVCEDQVGGFLCKCPPGFLGTRCG; listed as Homo sapiens)

>  <measureUnit>
µg/mL

>  <MIC against P. vulgaris>
50

$$$$
>  <substance>
PRT1437 (DVNECADGAHPPCHASARCRNTKGGFQCLCADPYELGDDGRTCV; listed as Homo sapiens)

>  <measureUnit>
µg/mL

>  <MIC against P. vulgaris>
12.5

$$$$
>  <substance>
PRT1433 (PPRRCDSNPCFRGVQCTDSRDGFQCGPCPEGYTGNGITCI; listed as Homo sapiens)

>  <measureUnit>
µg/mL

>  <MIC against P. vulgaris>
12.5

$$$$
